# Read-out: Bcl-2 (BAX) gene, BAX (gene 581)
# Protocol summary: LTEA_HepaRG_BAX: Life Technologies and Expression Analysis (LTEA) Assay for Bcl-2 (BAX) gene using HepaRG (AID 2283470)
# Condition: mRNA level, 48 h; actives raise or lower the signal
Calls of active or inactive are those of the source. Rule for the calls: active = hit-call score of the fitted dose curve at least 0.9, where 1 is the maximum; inactive = score below 0.9.
Assay metric: AC50

Here are 8 compounds together with their reported answers.
OCC(CO)n1cnc(-c2ccc(F)cc2)c1-c1ccnc(Oc2ccccc2)n1
inactive
CN(C)C(=O)NC1(c2ccccc2)CCN(CC[C@@]2(c3ccc(F)c(F)c3)CN(C(=O)c3ccccc3)CCO2)CC1
inactive
CC(C)c1cccc(C(C)C)c1NC(=O)NS(=O)(=O)c1cc(C(C)(C)O)co1
inactive
CCCCCCC(CCCCCCCCCCC(=O)OCC(COC(C)=O)OC(C)=O)OC(C)=O (stereo not given)
inactive
CS(=O)(=O)c1ccc([C@@H](C[C@H]2CCC(=O)C2)C(=O)Nc2cnccn2)cc1Cl
25.4 µM (active)
Cc1ccc(C(C)(C)C)c(O)c1
inactive
COC(=O)[C@H]1[C@H]2C[C@@H]3c4[nH]c5cc(OC)ccc5c4CCN3C[C@H]2C[C@@H](OC(=O)c2cc(OC)c(OC)c(OC)c2)[C@@H]1OC
inactive
O=NO
inactive

Param item = CCc1cc(C2=C(C(=O)O)N(c3ccccc3C(F)(F)F)S(=O)(=O)c3ccccc32)cc2c1OCO2 ; retrieve measured AC50.
50 µM (active)

Need AC50 of CCCC(=O)O , thanks.
inactive
